# System: CCRIS mutagenicity, Ames/micronucleus/aberration tests
# Test Name: CCRIS mutagenicity studies
# Conditions: Test System: AMES SALMONELLA TYPHIMURIUM; Strain/Indicator: TA1538; Metabolic Activation: NONE; Method: STANDARD PLATE
Activity calls are given as the source filed them. No rule for the calls is given here.
Output constraint: value belongs to label 1 = active, label 0 = inactive

[
  {
    "Compound": "[Cl][Fe]([Cl])[Cl]",
    "Category Label": "label 0"
  },
  {
    "Compound": "CC1(C)C(C=C(Cl)Cl)C1C(=O)OC(C#N)c1cccc(Oc2ccccc2)c1 (centres undefined)",
    "Category Label": "label 0"
  }
]

Pending compound:
Qu. What did the test return for "Nc1cc([N+](=O)[O-])c(N)cc1F" ?
Ans. label 1

====

# Test system: CCRIS mutagenicity, Ames/micronucleus/aberration tests
# Test Name: CCRIS mutagenicity studies
# Conditions: Test System: AMES SALMONELLA TYPHIMURIUM; Strain/Indicator: TA1535; Metabolic Activation: NONE; Method: STANDARD PLATE
The source made the active and inactive calls. No rule for the calls is given here.
Output constraint: value belongs to 1.0 for active, 0.0 for inactive

[
  {
    "Compound": "O=C1CN=C(c2ccccc2)c2cc([N+](=O)[O-])ccc2N1",
    "Category Label": 0.0
  },
  {
    "Compound": "CCCCCCCC/C=C\\CCCCCCCC(=O)O",
    "Category Label": 0.0
  }
]

Pending compound:
Qu. What did the test return for "Nc1cccc2c1C(=O)c1cccc(N)c1C2=O" ?
Ans. 0.0

====

# Test system: CCRIS mutagenicity, Ames/micronucleus/aberration tests
# Test Name: CCRIS mutagenicity studies
# Conditions: Test System: AMES SALMONELLA TYPHIMURIUM; Strain/Indicator: TA98; Metabolic Activation: RAT, LIVER, S-9, AROCLOR 1254; Method: STANDARD PLATE
Active and inactive are the calls of the source. No rule for the calls is given here.
Output constraint: value belongs to active, inactive

Check out these entries, answers already filled in.
[
  {
    "Compound": "CCCCCCCCCCCCCCCC(=O)OC/C=C(C)/C=C/C=C(C)/C=C/C1=C(C)CCCC1(C)C",
    "Category Label": "inactive"
  },
  {
    "Compound": "CCC1(c2ccccc2)C(=O)N=C(O)NC1=O (stereo not drawn)",
    "Category Label": "inactive"
  }
]

Qu. What did the test return for "O=[N+]([O-])C1=Cc2cc3cc4ccccc4cc3c3cccc1c23" ?
Ans. active

Qu. What did the test return for "CC(=O)C(Cl)(Cl)Cl" ?
Ans. active

Qu. What did the test return for "COC(=O)[C@H]1[C@H]2C[C@@H]3c4[nH]c5cc(OC)ccc5c4CCN3C[C@H]2C[C@@H](OC(=O)c2cc(OC)c(OC)c(OC)c2)[C@@H]1OC" ?
Ans. inactive

Qu. What did the test return for "COC(=O)COc1ccc(Cl)cc1Cl" ?
Ans. inactive

Qu. What did the test return for "Cc1cccc(NS(=O)(=O)c2cccc3cccnc23)c1" ?
Ans. inactive

====

# Tested on: CCRIS mutagenicity, Ames/micronucleus/aberration tests
# Test Name: CCRIS mutagenicity studies
# Conditions: Test System: AMES SALMONELLA TYPHIMURIUM; Strain/Indicator: TA102; Metabolic Activation: NONE; Method: PREINCUBATION
# Excerpt: The CCRIS database contains chemical records with carcinogenicity, mutagenicity, tumor promotion, and tumor inhibition test results. It was developed by the National Cancer Institute (NCI). Data are derived from studies cited in primary journals, current awareness tools, NCI reports, and other sources. Test results have been reviewed by experts in carcinogenesis and mutagenesis. CCRIS provides historical information from the years 1985 - 2011. It is no longer updated. […]
Active and inactive are the calls of the source. The rule behind the calls is not given here.
Output constraint: value belongs to active, inactive

Check out these entries, answers already filled in.
[
  {
    "Compound": "CC(C)(C)c1cc(O)ccc1O",
    "Target Entity": "CCRIS mutagenicity, Ames/micronucleus/aberration tests",
    "Category Label": "inactive"
  },
  {
    "Compound": "CCC(C(C)O)[N+](=O)[O-] (stereo unspecified)",
    "Target Entity": "CCRIS mutagenicity, Ames/micronucleus/aberration tests",
    "Category Label": "inactive"
  },
  {
    "Compound": "CC(C)O",
    "Target Entity": "CCRIS mutagenicity, Ames/micronucleus/aberration tests",
    "Category Label": "inactive"
  },
  {
    "Compound": "Nc1nc(N)nc(-c2ccccc2)n1",
    "Target Entity": "CCRIS mutagenicity, Ames/micronucleus/aberration tests",
    "Category Label": "inactive"
  },
  {
    "Compound": "O=C1C(Cl)=C(Cl)C(=O)C(Cl)=C1Cl",
    "Target Entity": "CCRIS mutagenicity, Ames/micronucleus/aberration tests",
    "Category Label": "inactive"
  }
]

Qu. What did the test return for "Cc1cc(O)c2c(c1)C(=O)c1cccc(O)c1C2=O" ?
Ans. active

Qu. What did the test return for "O=C1CCCO1" ?
Ans. inactive

Qu. What did the test return for "COC(=O)c1ccc(/C=N/n2nnc3c([nH]c4ccccc43)c2=O)cc1" ?
Ans. inactive

Qu. What did the test return for "CC(C)(C)C1=CC(=O)C=CC1=O" ?
Ans. inactive

Qu. What did the test return for "CCCCCCC(=O)OCC" ?
Ans. inactive

Qu. What did the test return for "Cc1nccc2c1[nH]c1ccccc12" ?
Ans. inactive

Qu. What did the test return for C[C@@H]1Cc2c(Cl)cc(C(=O)NC(Cc3ccccc3)C(=O)O)c(O)c2C(=O)O1 (stereo partly specified) ?
Ans. inactive

Qu. What did the test return for "Oc1ccc(O)c(O)c1" ?
Ans. inactive

Qu. What did the test return for "C=CC(=O)NCO" ?
Ans. inactive

Qu. What did the test return for "Cc1cnc(C)cn1" ?
Ans. inactive

Qu. What did the test return for "NNC(=O)c1[nH]c2ccccc2c1N" ?
Ans. inactive

Qu. What did the test return for "O.O.O.O=C([O-])COc1ccccc1.O=C([O-])COc1ccccc1.[Cu+2]" ?
Ans. inactive

Qu. What did the test return for "CC(=O)OC/C=C(C)/C=C/C=C(C)/C=C/C1=C(C)CCCC1(C)C" ?
Ans. inactive

Qu. What did the test return for "CC(=O)OC(C)=O" ?
Ans. inactive

Qu. What did the test return for "O=[N+]([O-])O" ?
Ans. inactive

Qu. What did the test return for "CSSC" ?
Ans. inactive

====

# Test system: CCRIS mutagenicity, Ames/micronucleus/aberration tests
# Test Name: CCRIS mutagenicity studies
# Conditions: Test System: AMES SALMONELLA TYPHIMURIUM; Strain/Indicator: TA1537; Metabolic Activation: NONE; Method: STANDARD PLATE
Active and inactive are the calls of the source. The rule behind the calls is not given here.

[
  {
    "Compound": "C#CCOCC[n+]1ccccc1/C=N/O",
    "mutagenic call": "inactive; negative"
  },
  {
    "Compound": "CC1=Nc2ccccc2C1(C)C",
    "mutagenic call": "inactive; negative"
  },
  {
    "Compound": "CCC(C)Nc1snc2ccccc12 (stereo not drawn)",
    "mutagenic call": "inactive; negative"
  }
]

====

# Tested on: CCRIS mutagenicity, Ames/micronucleus/aberration tests
# Test Name: CCRIS mutagenicity studies
# Conditions: Test System: AMES SALMONELLA TYPHIMURIUM; Strain/Indicator: TA1537; Metabolic Activation: NONE; Method: STANDARD PLATE
# Description: The CCRIS database contains chemical records with carcinogenicity, mutagenicity, tumor promotion, and tumor inhibition test results. It was developed by the National Cancer Institute (NCI). Data are derived from studies cited in primary journals, current awareness tools, NCI reports, and other sources. Test results have been reviewed by experts in carcinogenesis and mutagenesis. CCRIS provides historical information from the years 1985 - 2011. It is no longer updated. […]
Activity calls are given as the source filed them. The rule behind the calls is not given here.
Output constraint: value belongs to active, inactive

Check out these entries, answers already filled in.
[
  {
    "Molecule": "CCCC(=O)Nc1snc2ccc(Cl)cc12",
    "Target Entity": "CCRIS mutagenicity, Ames/micronucleus/aberration tests",
    "Category Label": "inactive"
  },
  {
    "Molecule": "O=[N+]([O-])O",
    "Target Entity": "CCRIS mutagenicity, Ames/micronucleus/aberration tests",
    "Category Label": "inactive"
  },
  {
    "Molecule": "O=C1c2ccccc2C(=O)c2c(O)ccc(O)c21",
    "Target Entity": "CCRIS mutagenicity, Ames/micronucleus/aberration tests",
    "Category Label": "active"
  },
  {
    "Molecule": "ClCC1CO1 (stereo not given)",
    "Target Entity": "CCRIS mutagenicity, Ames/micronucleus/aberration tests",
    "Category Label": "inactive"
  },
  {
    "Molecule": "CC(C)(C)NCC(O)c1cc(Cl)c(N)c(C(F)(F)F)c1 (stereo not given)",
    "Target Entity": "CCRIS mutagenicity, Ames/micronucleus/aberration tests",
    "Category Label": "inactive"
  },
  {
    "Molecule": "Cc1cc([N+](=O)[O-])c(C)c2c1[nH]c1ccc([N+](=O)[O-])cc12",
    "Target Entity": "CCRIS mutagenicity, Ames/micronucleus/aberration tests",
    "Category Label": "active"
  }
]

Qu. What did the test return for "O=C1c2c(O)ccc3c2[C@H](c2ccc(O)c4c2[C@H]3[C@H]2O[C@H]2C4=O)[C@H]2O[C@@H]12" ?
Ans. active

Qu. What did the test return for O=C(c1ccccc1)C(O)c1ccccc1 (stereo not given) ?
Ans. inactive

Qu. What did the test return for "CC[C@@]1(O)C[C@H](O[C@H]2C[C@H](N(C)C)[C@H](O[C@H]3C[C@H](O)[C@H](O[C@H]4CCC(=O)[C@H](C)O4)[C@H](C)O3)[C@H](C)O2)c2c(cc3c(c2O)C(=O)c2c(O)cccc2C3=O)[C@H]1C(=O)OC" ?
Ans. inactive

Qu. What did the test return for "CN(C)c1ccc(N=Nc2cccnc2)cc1" ?
Ans. inactive

Qu. What did the test return for "O=c1[nH][nH]c2ccccc12" ?
Ans. inactive
